system: MS2 coat protein; assay: apparent KD of MS2 coat protein; higher = weaker reporter binding; details: Eterna round: R107; input ligand: tryptophan 2.4 mM
Below, each entry is listed with its recorded apparent KD of MS2 coat protein.
Numeric answer only, unit nM assumed.

AAUAGACAUGAGGAUCACCCAUGUAUGGAAGGAGCGGUGAAUAAGCCAGGUAGGUCGCCAGUGUGAGGGUUAUCUAUGUAAUAAA [#19 Exclusion - Arginine A]; 40.8
GGCGUGGUCGGAAGGAGCGACAUGAGGAUCACCCAUGUCUCCCGUUAUGGGAGUUCCUUAGGUCAGGUAGGUCGCCGACUGCGGC [#1 Exclusion - Arginine B Attempt #22 (Inspired by Omei)]; 159
AGUACAUGAGGAUCACCCAUGUAUCGGUACCGAGGACCGGUACGGCCGCCACUCGCAGGACAUGAGGAUCACCCAUGUGCAGCCG [SSTA DOUBLE!!! :-D #10]; 35
UCGGGUUUGCGAAGGAGCGGGUAUGUUUUCUAGUGGAUCCUAACAUGAGGAUCACCCAUGUCCCAGGUAGGUCGCGCGGGUUUGG [12.W]; 100

Then this sequence:
Request: Retrieve apparent KD of MS2 coat protein on MS2 coat protein; query UCGUGGUCCGCAAGGACCGGGAGUUGCGAUACCAGCACGGUAACGUGCCCUUGGCAGCGCACAUGAGGAUCACCCAUGUGGUGUU [#1 Exclusion - Theophylline A Attempt #14 (HarryS)]
Response: 174

---

system: K4 kissing-loop RNA reporter; assay: apparent KD of K4 kissing-loop reporter; higher = weaker reporter binding; details: Eterna round: R107; input ligand: tryptophan 2.4 mM;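 also: bound reporter read as fluorescence of individual clusters on recovered sequencing chips by microscopy, with normalized cluster intensities fitted with a binding model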
outcome-measure: apparent KD of K4 kissing-loop reporter (nM)
The answer is to be given in nM; state only the numeric part.

UCCUGCAAUCUGCCACGAAAGUGGGUUGAUACCAGAGUCGAAAGACUCCCUUGGCAGCGAGUGAUGUUCGUUGCAGGUGUAUAAA [MatMod 10 - Jieux - Exclusion - Theophylline A]; 179
AGGAGUGAUGUUCCUACAUAGACGGUCCGACGAGGACCGGUACGGCCGCCACUCGCGUCCCAGUGAUGUUGGGAUUCAACGUACA [Exclusion Tryptophan A Gf 15]; 122
CGCAGUGAUGUUGCUUAUAUUCUUGGUUAACGAGGACCGGUACGGCCGCCACUCGAUUUCUAACUAUUCCAGUGUUAAUUUGAGU [JR_ExcTryptoA_Sub006]; 306
UUAGUAUAGAGAGGAUAUACCUUCCAGUGAUGUUGGAUAGAUGAAUUUAAUCAUCAAGCAUAGCUUGUAGAAGGCUCUAUACAUU [AK1 SS FMN B]; 613
AGGGAUGUUAAAGGAUAUAGAAAGUGAUGUUAGAAAGUGAGUGAUGUUGAUGUUAGUGAUGUUAUGUUAGAAGGUUAACAAAACG [a]; 161

Request: Please give the documented apparent KD of K4 kissing-loop reporter of UGUACAUGUCACCGAGUGAUGUUCGACGAUACCAGACUCGAUAGAGUCCCUUGGCAGCGUAACGCAUGCCAAAGUGGCAUGUACU [#SwitchBubble 10 #K4Early]
Response: 598

Request: Respond only with apparent KD of K4 kissing-loop reporter recorded for AGCGAUGUUUUCUCUAAGAGUGAUGUUUUUCGAGGACCGGUACGGCCGCCACUCGAAUAAAGUGUGCGGUAGUGAGCUGUUGACA [#18 K4 Tryptophan A Exclusion]
Response: 718

Request: Give recorded apparent KD of K4 kissing-loop reporter. AAAUUUUCGAGUGAUGUUCGAAUAAUUUCAGAGGAUAUGCUUAAAAGCAGAAGGCUGUAUUACUAUUUGUUAUUAAAUUUUAUAA [JR_ExcFMNA_Sub001]
Response: 86.2

Request: Look up and state reported apparent KD of K4 kissing-loop reporter for GGUGUUGUUUGUGCUGUUUUCCUCGUUUCUCGAGGACCGGUACGGCCGCCACUCGAGUGAUGUUUGGGUAGCGAUCCUUGUUAGU [Bdazzled - #6 Exc. Tryptophan A]
Response: 383

Request: Write down apparent KD of K4 kissing-loop reporter measured for item GCGUCAUCGAAAGGAUAUGGAGUAGUGAUGUUGAUCCAUAUGCUCACGCAUAGCCGAGAACAUCGACCAGAAGGUUCAAGAACUG [theeternabot_exclusion_KL_FMN_B_41]
Response: 459

Request: Give reported apparent KD of K4 kissing-loop reporter value for UGUAUGUGAUUUGAUACCAGACCAGCUGGUGGUGUAUGAGUGAUGUUCAUGUUGGUUUGGGUCCCUUGGCAGCAAAUCGCAUACU [KL-SSTheoB30]
Response: 11.7

---

test system: MS2 coat protein; experiment: apparent KD of MS2 coat protein; designed switch direction (-1 OFF switch, 1 ON switch): -1; higher = weaker reporter binding; conditions: Eterna round: R95; input ligand: none
Parameter apparent KD of MS2 coat protein: see the listing below.
All answers are understood in nM, so give the number only.

CUGAGGUAGCGGUCCUAUGACAUGAGGAUCACCCAUGUACCUUGCUUCGAGCUUUUUGCUCGUCUUAUGAUUCUCAG [Mat - Sensor v3 - turn-off var 1 - JL Mod - D32] (puzzle: Sensor v3, turn-off variant 1); 162
AGUACUGACACGUUGGUGUUAGUACAAUAAGCUUGUGACACAUGAGGAUCACCCAUGUCCUCAUAAGCUCGUCUUAU [salish99_TOv2_r2_094] (puzzle: Sensor v3, turn-off variant 2); 20.7
AAUGAUGAUGUGAGGAUAUACAUAGUUAGAAAGUAGUAGAAGGCACAUGAGGAUCACCCAUGUAGAUGUAAGGU [JR_BME4_Sub001] (puzzle: Brourd's mod of Exclusion 4); 24.6
CGUGACUCAGGAUAUGUAUUAUAUCACAUGAGGAUCACCCAUGUCCAGCGAAAGCUGGAGGCAGAAGGGAGUCACG [Fiskers Ex 5 - 47] (puzzle: Exclusion 5); 106

Request: Fill in reported apparent KD of MS2 coat protein for this entry: AAGAAACAUGAGGAUCACCCAUGUGAGGAUAUGAUCAAGAAAAGAAAAGAAAGAAGAAUCAGAAGGCACAAAGG [salish99-ex1_r3_044] (puzzle: Exclusion 1)
Response: 342

---

system: MS2 coat protein; test: apparent KD of MS2 coat protein; designed switch direction (-1 OFF switch, 1 ON switch): 1; higher = weaker reporter binding; conditions: input ligand: none
The entries below come with measured apparent KD of MS2 coat protein values attached.
Quick note: give the figure in nM, leave out the unit.

As a guide, the following entries are already answered.
GCUCGAUGAGCGAUUUACAUGAGGAUCACCCAUGUACGUGGGCAGGAUAUUUACGUGCUUUGUGUAGAGAAGGGCCCAUCGAGC [SameState NG3 #72] (Eterna round: R96, puzzle: Same State NG 3); 546
GUGCUCGUGUGAGGAUAUGCUUCCGUUUCGGCUGCAGAAGGUACUAUUAUACAUGAGGAUCACCCAUGUCUCUUUUGUUUGGUG [salish99_SSNG1_r04_910] (Eterna round: R96, puzzle: Same State NG 1); 67.8

Request: Answer with the recorded apparent KD of MS2 coat protein for the sequence listed here: AGCGAAAGCAGUCACAUGAGGAUCACCCAUGUAUUAACUAUUGAGGAUAUGCAGCGACGGGUGUAGCAGAAGGCAGUGAGAAGG [Eternabot solution 30] (Eterna round: R96, puzzle: Same State NG 3)
Response: 61.1

Request: Give apparent KD of MS2 coat protein for GGUAGGUUACUACCAAACAUGAGGAUCACCCAUGUAAAUGGGAAGGAUAUGGUACCUAUUUGGUACCAGAAGGUCUAAUUAAUU [JL Fiskers NG3ss - 2 mod 1] (Eterna round: R96, puzzle: Same State NG 3)
Response: 553

Request: // fetch apparent KD of MS2 coat protein given entry GGACGUCAUCUCAAUGAUUAAACAUGAGGAUCACCCAUGUCACAGGAUAUGGAUCCUAAUUGGAUCCAGAAGGGUGUGACGUCC [Fiskers NG3ss - 44] (Eterna round: R96, puzzle: Same State NG 3)
Response: 148

Request: Tell me measured apparent KD of MS2 coat protein for GGGAGAGGCGCAGGAUAUGGUGAGGAUCACCCACUAGAAGGGUGCACAUGAGAAUCGGACAUGAGGAUCACCCAUGUUUGGCGC (Eterna round: R96, puzzle: Same State NG 1) please.
Response: 565

Request: Look up apparent KD of MS2 coat protein of GGAAUAUGAUGUUACAUGAGGAUCACCCAUGUAGUGACAACUAAGGAUAUCUGAAAGGAAGGAGAGGAGAAGGUAGGAUCAUAA [AK SSNG3-V2-14] (Eterna round: R96, puzzle: Same State NG 3) and report it.
Response: 33.3

Request: Please give measured apparent KD of MS2 coat protein of the following entry: AGAAAUCAACGCGCACAUGAGGAUCACCCAUGUGCUCAAGCACAGGAUAUCGGCACAAGACAGGCCGAGAAGGGUGGAGCACGA [Eternabot solution 3] (Eterna round: R96, puzzle: Same State NG 3)
Response: 24.1

Request: Specify measured apparent KD of MS2 coat protein for AUGCCAAAUGGAGGAUAUGGAGCCUUAUUGGCUCCAGAAGGUCAGACAUGAGGAUCACCCAUGUGGCAGUGGUCUAAUGACCAC [Eli NG1ss - 39] (Eterna round: R96, puzzle: Same State NG 1) .
Response: 638
